assay: Apparent permeability across MDCK cells; type: ADME, cell-based, Canis lupus familiaris; details: dog
readoutName: Papp (×10⁻⁶ cm/s)
Express your answer in ×10⁻⁶ cm/s, writing the number without its unit.

Which Papp value is on record for Cc1nc2ccccc2n1[C@H]1C[C@H]2CC[C@@H](C1)N2CCC(C)(CN(C)S(=O)(=O)c1ccccc1)c1ccccc1 (mixture of isomers) ?
7

###

test system: Human immunodeficiency virus 1; assay: Antiviral activity against HIV1 Ba-L infected in human PBL cells assessed as reverse transcriptase activity after 7 days; type: functional, organism-based; details: Human immunodeficiency virus 1, Ba-L, 168 h
Readings of pIC50 for the listed compounds
# pIC50 = -log10(concentration in molar units)

Worked examples follow.
- compound: "Cc1nc2ccccc2n1[C@H]1C[C@H]2CC[C@@H](C1)N2CCC(C)(CN(C)S(=O)(=O)c1ccccc1)c1ccccc1 (mixture of isomers)"
  pIC50: 9.00
- compound: "CCc1nc(Cc2ccccc2)cn1C1CCN(CCC(CNS(=O)(=O)c2ccccc2)c2ccccc2)CC1 (racemic)"
  pIC50: 7.37
- compound: "Cc1nc2ccccc2n1C1CC2CCC(C1)N2CCC(CNS(C)(=O)=O)c1ccccc1 (racemic)"
  pIC50: 7.00

Which pIC50 value is on record for CC(=O)N1CCc2nc(C)n([C@H]3C[C@H]4CC[C@@H](C3)N4CCC(CNS(=O)(=O)c3ccccc3)c3ccccc3)c2C1 (mixture of isomers) ?
9.00

###

assay: Oral bioavailability in Sprague-Dawley rat at 1 mg/kg; format: ADME, organism-based; details: in vivo
readoutName: bioavailability

Worked examples follow.
- molecule: "Cc1nc2ccccc2n1[C@H]1C[C@H]2CC[C@@H](C1)N2CCC(C)(CN(C)S(=O)(=O)c1ccccc1)c1ccccc1 (mixture of isomers)"
  bioavailability: "< 1%"
- molecule: "Cc1cc(OS(=O)(=O)c2ccccc2)cc(C)c1C(=O)N1C[C@H]2CN(CCC(CNS(=O)(=O)c3ccccc3)c3ccccc3)C[C@H]2C1 (mixture of isomers)"
  bioavailability: "2%"
- molecule: "CC(=O)N1CCc2nc(C)n([C@H]3C[C@H]4CC[C@@H](C3)N4CCC(CNS(=O)(=O)c3ccccc3)c3ccccc3)c2C1 (mixture of isomers)"
  bioavailability: "< 1%"

Which bioavailability value is on record for Cc1nc2ccccc2n1C1CC2CCC(C1)N2CCC(CN(C)S(=O)(=O)c1ccccc1)c1ccccc1 (racemic) ?
5%

###

Data export: IC50 values recorded with Voltage-gated inwardly rectifying potassium channel KCNH2 (Homo sapiens).
Sequence (Q12809 whole entry): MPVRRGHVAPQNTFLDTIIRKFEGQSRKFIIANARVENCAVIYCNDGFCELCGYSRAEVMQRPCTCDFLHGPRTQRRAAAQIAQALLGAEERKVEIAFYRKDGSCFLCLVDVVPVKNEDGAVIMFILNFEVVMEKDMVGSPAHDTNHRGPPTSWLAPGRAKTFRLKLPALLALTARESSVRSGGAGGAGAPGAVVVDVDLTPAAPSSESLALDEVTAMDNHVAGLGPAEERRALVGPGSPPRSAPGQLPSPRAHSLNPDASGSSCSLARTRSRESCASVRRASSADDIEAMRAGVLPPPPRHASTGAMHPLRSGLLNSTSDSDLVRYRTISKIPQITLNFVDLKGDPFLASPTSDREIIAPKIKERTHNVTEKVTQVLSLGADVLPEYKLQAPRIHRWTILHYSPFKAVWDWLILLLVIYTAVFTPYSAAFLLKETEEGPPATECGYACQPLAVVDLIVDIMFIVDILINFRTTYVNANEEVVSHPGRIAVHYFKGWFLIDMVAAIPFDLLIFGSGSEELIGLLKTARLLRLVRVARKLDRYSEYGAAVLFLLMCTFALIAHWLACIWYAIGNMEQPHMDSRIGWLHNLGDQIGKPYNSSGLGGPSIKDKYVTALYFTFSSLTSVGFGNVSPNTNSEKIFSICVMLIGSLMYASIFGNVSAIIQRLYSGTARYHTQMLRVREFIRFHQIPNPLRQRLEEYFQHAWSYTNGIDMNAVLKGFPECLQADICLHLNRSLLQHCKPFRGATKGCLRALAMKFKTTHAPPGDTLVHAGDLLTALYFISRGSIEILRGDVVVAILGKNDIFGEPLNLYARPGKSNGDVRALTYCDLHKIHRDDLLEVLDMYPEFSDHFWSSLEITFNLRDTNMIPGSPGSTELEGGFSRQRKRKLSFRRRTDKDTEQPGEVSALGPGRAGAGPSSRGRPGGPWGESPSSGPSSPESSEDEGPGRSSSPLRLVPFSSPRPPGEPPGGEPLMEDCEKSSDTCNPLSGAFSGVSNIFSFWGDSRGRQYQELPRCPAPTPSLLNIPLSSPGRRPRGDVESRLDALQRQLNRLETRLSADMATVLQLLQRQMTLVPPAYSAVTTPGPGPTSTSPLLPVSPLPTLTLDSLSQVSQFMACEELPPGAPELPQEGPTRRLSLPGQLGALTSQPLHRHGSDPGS

Which IC50 value is on record for Cc1nnc(C(C)C)n1[C@H]1C[C@H]2CC[C@@H](C1)N2CCC(CNC(=O)C1CCC(F)(F)CC1)c1ccccc1 (mixture of isomers) ?
≥ 10 µM

Now the compound Cc1nnc(C(C)C)n1[C@H]1C[C@H]2CC[C@@H](C1)N2CCC(CNS(=O)(=O)c1ccccc1)c1ccccc1 (racemic; 14a)
≥ 10 µM

Now the compound Cc1nnc(C(C)C)n1[C@H]1C[C@H]2CC[C@@H](C1)N2CCC(CNC(=O)c1ccccc1)c1ccccc1 (mixture of isomers)
≥ 10 µM

###

assay: Half life in rat hepatocytes; type: ADME, cell-based, Liver, Hepatocyte
Readings of half-life for the listed molecules

Worked examples follow.
- molecule: "Cc1nc2ccccc2n1[C@H]1C[C@H]2CC[C@@H](C1)N2CCC(C)(CN(C)S(=O)(=O)c1ccccc1)c1ccccc1 (mixture of isomers)"
  half-life: "≤ 20 min"
- molecule: "CC(=O)N1CCc2nc(C)n([C@H]3C[C@H]4CC[C@@H](C3)N4CCC(CNS(=O)(=O)c3ccccc3)c3ccccc3)c2C1 (mixture of isomers)"
  half-life: "≤ 20 min"
- molecule: "Cc1cc(OS(=O)(=O)c2ccccc2)cc(C)c1C(=O)N1C[C@H]2CN(CCC(CNS(=O)(=O)c3ccccc3)c3ccccc3)C[C@H]2C1 (mixture of isomers)"
  half-life: "≤ 20 min"

Which half-life value is on record for Cc1nc2ccccc2n1C1CC2CCC(C1)N2CCC(CN(C)S(=O)(=O)c1ccccc1)c1ccccc1 (racemic) ?
≤ 20 min

###

system: Rattus norvegicus; assay: AUC in Sprague-Dawley rat at 1 mg/kg, iv and po; assay type: ADME, organism-based, Plasma; design: dose 1 mg/kg, route oral; unit not given here; conditions: in vivo
readoutName: AUC
Please respond with just the number, no unit label.

- compound: "Cc1nc2ccccc2n1[C@H]1C[C@H]2CC[C@@H](C1)N2CCC(C)(CN(C)S(=O)(=O)c1ccccc1)c1ccccc1 (mixture of isomers)"
  targetEntity: "Rattus norvegicus"
  AUC: 0
- compound: "Cc1nc2ccccc2n1C1CC2CCC(C1)N2CCC(CN(C)S(=O)(=O)c1ccccc1)c1ccccc1 (racemic)"
  targetEntity: "Rattus norvegicus"
  AUC: 40
- compound: "CC(=O)N1CCc2nc(C)n([C@H]3C[C@H]4CC[C@@H](C3)N4CCC(CNS(=O)(=O)c3ccccc3)c3ccccc3)c2C1 (mixture of isomers)"
  targetEntity: "Rattus norvegicus"
  AUC: 0

Now examine the next entry.
I'm curious: which AUC was measured for Cc1cc(OS(=O)(=O)c2ccccc2)cc(C)c1C(=O)N1C[C@H]2CN(CCC(CNS(=O)(=O)c3ccccc3)c3ccccc3)C[C@H]2C1 (mixture of isomers) tested on Rattus norvegicus?
10

###

system: Human immunodeficiency virus 1; experiment: Antiviral activity against HIV1 Ba-L infected in human PBL cells assessed as reverse transcriptase activity after 7 days; format: functional, organism-based; details: Human immunodeficiency virus 1, Ba-L, 168 h
Readings of pIC50 for the listed compounds
# pIC50 = -log10(concentration in molar units)

Worked examples follow.
- compound: "Cc1cc(OS(=O)(=O)c2ccccc2)cc(C)c1C(=O)N1C[C@H]2CN(CCC(CNS(=O)(=O)c3ccccc3)c3ccccc3)C[C@H]2C1 (mixture of isomers)"
  pIC50: 9.00
- compound: "Cc1nc2ccccc2n1C1CC2CCC(C1)N2CCC(CNS(=O)(=O)c1ccccc1)c1ccccc1 (racemic)"
  pIC50: 6.95
- compound: "Cc1nc2ccccc2n1C1CC2CCC(C1)N2CCC(CNS(=O)(=O)c1cccc(C(N)=O)c1)c1ccccc1 (racemic)"
  pIC50: 6.79

Which pIC50 value is on record for Cc1nc2ccccc2n1C1CC2CCC(C1)N2CCC(CN(C)S(=O)(=O)c1ccccc1)c1ccccc1 (racemic) ?
7.22
